test system: KB; experiment: Cytotoxicity against human KB cells at 10^-6 M after 72 hrs by MTS assay; format: functional
observed_property: inhibition at 1 µM

substance_smiles=CCOC(=O)Oc1ccc2[nH]c3c(C)cc(N=C(N)N)c(C)c3c2c1 value_measured=0%
substance_smiles=CCC(CC)N/C(N)=N/c1cc(C)c2[nH]c3ccc(Br)cc3c2c1C value_measured=15%
substance_smiles=CCCCN/C(N)=N/c1cc(C)c2[nH]c3ccccc3c2c1C value_measured=5%
substance_smiles=Cc1cc(/N=C(\N)NC(C)(C)C)c(C)c2c1[nH]c1ccc(Br)cc12 value_measured=16%
substance_smiles=CCCCN/C(N)=N/c1cc(C)c2[nH]c3ccc(Br)cc3c2c1C value_measured=26%
substance_smiles=CCCN/C(N)=N/c1cc(C)c2[nH]c3ccccc3c2c1C value_measured=18%
